Numbers sourced from paper PMC11171523.

System: poly A–poly U (pApU, AU-RNA) (RNA, polymer) A/U
EXPERIMENT_SUMMARY: fluorimetric titration, Scatchard fit
RECORDED_CONDITIONS: Na+ (sodium cacodylate, I = 0.05 M); pH 7.0, 25 °C; dye 50 nM; n fixed at 0.2; polynucleotide as phosphate; per base
RECORDED_METRIC: log Ks

INSERT INTO measurements (structure_smiles, measured) VALUES
  ('C#CC[N+](C)(C)c1ccc(/C=C/c2cc(/C=C/c3ccc([N+](C)(C)CC#C)cc3)cc(/C=C/c3ccc([N+](C)(C)CC#C)cc3)c2)cc1', 8.6),
  ('CCCC[n+]1ccc(/C=C/c2cc(/C=C/c3cc[n+](CCCC)cc3)c(/C=C/c3cc[n+](CCCC)cc3)cc2/C=C/c2cc[n+](CCCC)cc2)cc1', 7.6),
  ('CCCC[N+](C)(CCCC)c1ccc(/C=C/c2cc(/C=C/c3ccc([N+](C)(CCCC)CCCC)cc3)c(/C=C/c3ccc([N+](C)(CCCC)CCCC)cc3)cc2/C=C/c2ccc([N+](C)(CCCC)CCCC)cc2)cc1', 8.6);
